Reported pKi values for a set of compounds
studyTarget: serotonin 5-HT6 receptor subtype (Homo sapiens)
Construct: host or cells: CHO-Dukx-A2 cells, clone 50-7
protocol: 5-HT6 binding affinity ([3H]-LSD SPA binding)
conditionNotes: read-out: 5-HT6 binding Ki
pKi: −log10 of the molar value.

compound | pKi
C[C@@H]1CN(c2cccc3c2ncn3S(=O)(=O)c2cccc3ccccc23)CCN1 [Example 78] | 8.89
COc1ccc(Br)cc1S(=O)(=O)n1cnc2c(N3CCNCC3)cccc21 [Example 66] | 8.31
Cc1nc2c(N3CCN[C@@H](C)C3)cccc2n1S(=O)(=O)c1cccc2c(Cl)cccc12 [Example 126] | 8.98
Cc1c(Cl)cccc1S(=O)(=O)n1cnc2c(N3CCNC(C)C3)cccc21 (stereo not drawn) [Example 58] | 8.76
CC1CN(c2cccc3c2ncn3S(=O)(=O)c2ccccc2OC(F)(F)F)CCN1 (stereo not drawn) [Example 57] | 8.68
Cc1nc2c(N3CCNCC3)cccc2n1S(=O)(=O)c1ccccc1OC(F)(F)F [Example 46] | 8.76
Cc1c(Cl)cccc1S(=O)(=O)n1c(C)nc2c(N3CCNC(C)C3)cccc21 (stereo not drawn) [Example 95] | 9.40
O=S(=O)(c1ccccc1F)n1cnc2c(N3CCNCC3)cccc21 [Example 21] | 8.52
CCc1nc2c(N3CCNCC3)cccc2n1S(=O)(=O)c1ccccc1 [Example 6] | 9.35
CC1CN(c2cccc3c2ncn3S(=O)(=O)c2ccccc2Cl)CCN1 (stereo not drawn) [Example 53] | 8.87
C[C@H]1CN(c2cccc3c2ncn3S(=O)(=O)c2cccc(Cl)c2)CCN1 [Example 80] | 9.32
Cc1ccc(S(=O)(=O)n2cnc3c(N4CCNCC4)cccc32)cc1 [Example 27] | 8.60
COc1ccccc1S(=O)(=O)n1cnc2c(N3CCNC(C)C3)cccc21 (stereo not drawn) [Example 56] | 8.63
CC1CN(c2cccc3c2ncn3S(=O)(=O)c2cccc3ccccc23)CCN1 (stereo not drawn) [Example 129] | 10.29
COc1ccc(Cl)cc1S(=O)(=O)n1cnc2c(N3CCNCC3)cccc21 [Example 65] | 8.45
Cc1nc2c(N3C[C@@H](C)N[C@@H](C)C3)cccc2n1S(=O)(=O)c1cccc2ccccc12 [Example 97] | 8.42
C[C@H]1CN(c2cccc3c2ncn3S(=O)(=O)c2ccccc2Cl)CCN1 [Example 79] | 9.55
Cc1nc2c(N3C[C@@H]4C[C@H]3CN4)cccc2n1S(=O)(=O)c1ccccc1 [Example 109] | 7.52

* * *

Reported pKi values for a set of compounds
studyTarget: serotonin 5-HT6 receptor subtype (Homo sapiens)
Construct: host or cells: CHO-Dukx-A2 cells, clone 50-7
protocol: 5-HT6 binding affinity ([3H]-LSD SPA binding)
conditionNotes: read-out: 5-HT6 binding Ki
pKi: −log10 of the molar value.
measuredProperty: pKi

compound | studyTarget | endpointValue
O=S(=O)(c1ccccc1Cl)n1cnc2c(N3CCNCC3)cccc21 | serotonin 5-HT6 receptor subtype (Homo sapiens) | 9.57
Cc1nc2c(N3CCNCC3)cccc2n1S(=O)(=O)c1ccccc1Cl | serotonin 5-HT6 receptor subtype (Homo sapiens) | 9.00
Cc1nc2c(N3CCNCC3)cccc2n1S(=O)(=O)c1ccccc1F | serotonin 5-HT6 receptor subtype (Homo sapiens) | 8.60
CCC1CN(c2cccc3c2ncn3S(=O)(=O)c2cccc3ccccc23)CCN1 (centres unmarked) | serotonin 5-HT6 receptor subtype (Homo sapiens) | 8.86
CC(C)c1nc2c(N3CCNCC3)cccc2n1S(=O)(=O)c1cccc2c(Cl)cccc12 | serotonin 5-HT6 receptor subtype (Homo sapiens) | 8.83
O=S(=O)(c1ccc(OC(F)(F)F)cc1)n1cnc2c(N3CCNCC3)cccc21 | serotonin 5-HT6 receptor subtype (Homo sapiens) | 7.05
COc1ccccc1S(=O)(=O)n1c(C)nc2c(N3CCNCC3)cccc21 | serotonin 5-HT6 receptor subtype (Homo sapiens) | 8.72
CC1CN(c2cccc3c2ncn3S(=O)(=O)c2cccc(Cl)c2)CCN1 (centres unmarked) | serotonin 5-HT6 receptor subtype (Homo sapiens) | 8.72
O=S(=O)(c1ccccc1)n1cnc2c(N3CCNCC3)cc(F)cc21 | serotonin 5-HT6 receptor subtype (Homo sapiens) | 9.13
O=S(=O)(c1cccc2ccccc12)n1cnc2c(N3C[C@@H]4C[C@H]3CN4)cccc21 | serotonin 5-HT6 receptor subtype (Homo sapiens) | 8.12
O=S(=O)(c1ccccc1OC(F)(F)F)n1cnc2c(N3CCNCC3)cccc21 | serotonin 5-HT6 receptor subtype (Homo sapiens) | 9.14
Cc1nc2c(N3CCNC(C)C3)cccc2n1S(=O)(=O)c1ccccc1Cl (centres unmarked) | serotonin 5-HT6 receptor subtype (Homo sapiens) | 9.31
CC(C)CC1CN(c2cccc3c2ncn3S(=O)(=O)c2ccccc2)CCN1 (centres unmarked) | serotonin 5-HT6 receptor subtype (Homo sapiens) | 7.46
Cc1nc2c(N3CCNCC3)cccc2n1S(=O)(=O)c1cccc(OC(F)(F)F)c1 | serotonin 5-HT6 receptor subtype (Homo sapiens) | 8.64
Cc1ccc(F)c(S(=O)(=O)n2cnc3c(N4CCNCC4)cccc32)c1 | serotonin 5-HT6 receptor subtype (Homo sapiens) | 9.60
O=S(=O)(c1cccc2ccccc12)n1cnc2c(N3CCNCC3)cccc21 | serotonin 5-HT6 receptor subtype (Homo sapiens) | 9.78
Cc1ccccc1S(=O)(=O)n1c(C)nc2c(N3CCNCC3)cccc21 | serotonin 5-HT6 receptor subtype (Homo sapiens) | 8.65
Cc1ccccc1S(=O)(=O)n1cnc2c(N3CCNCC3)cccc21 | serotonin 5-HT6 receptor subtype (Homo sapiens) | 8.94
CCN1CCN(c2cccc3c2ncn3S(=O)(=O)c2ccccc2)CC1 | serotonin 5-HT6 receptor subtype (Homo sapiens) | 9.40
CC(C)CC1CN(c2cccc3c2ncn3S(=O)(=O)c2ccccc2Cl)CCN1 (centres unmarked) | serotonin 5-HT6 receptor subtype (Homo sapiens) | 8.30
Cc1nc2c(N3CCNCC3)cccc2n1S(=O)(=O)c1ccc(OC(F)(F)F)cc1 | serotonin 5-HT6 receptor subtype (Homo sapiens) | 7.80
COc1ccc(C)cc1S(=O)(=O)n1cnc2c(N3CCNCC3)cccc21 | serotonin 5-HT6 receptor subtype (Homo sapiens) | 9.30
CC(C)C1CN(c2cccc3c2ncn3S(=O)(=O)c2ccccc2)CCN1 (centres unmarked) | serotonin 5-HT6 receptor subtype (Homo sapiens) | 8.21
CC(C)c1nc2c(N3CCNCC3)cccc2n1S(=O)(=O)c1cccc2ccccc12 | serotonin 5-HT6 receptor subtype (Homo sapiens) | 9.22
O=S(=O)(c1cc(C(F)(F)F)ccc1Cl)n1cnc2c(N3CCNCC3)cccc21 | serotonin 5-HT6 receptor subtype (Homo sapiens) | 7.86
CCOc1ccccc1S(=O)(=O)n1c(C)nc2c(N3CCNCC3)cccc21 | serotonin 5-HT6 receptor subtype (Homo sapiens) | 9.12
Cc1nc2c(N3CCNC(C)C3)cccc2n1S(=O)(=O)c1ccccc1 (centres unmarked) [Example 91] | serotonin 5-HT6 receptor subtype (Homo sapiens) | 8.61
O=S(=O)(c1cccc(F)c1)n1cnc2c(N3CCNCC3)cccc21 | serotonin 5-HT6 receptor subtype (Homo sapiens) | 8.82
CC(C)c1nc2c(N3CCNCC3)cccc2n1S(=O)(=O)c1cccc(Cl)c1 | serotonin 5-HT6 receptor subtype (Homo sapiens) | 8.97
O=S(=O)(c1ccccc1)n1cnc2c(N3C[C@@H]4C[C@H]3CN4)cccc21 | serotonin 5-HT6 receptor subtype (Homo sapiens) | 7.35
Cc1nc2c(N3CCNCC3)cccc2n1S(=O)(=O)c1cccc(C(F)(F)F)c1 | serotonin 5-HT6 receptor subtype (Homo sapiens) | 9.01
COc1cccc(S(=O)(=O)n2c(C)nc3c(N4CCNCC4)cccc32)c1 | serotonin 5-HT6 receptor subtype (Homo sapiens) | 8.68
COc1cc(C)ccc1S(=O)(=O)n1cnc2c(N3CCNCC3)cccc21 | serotonin 5-HT6 receptor subtype (Homo sapiens) | 8.67
Cc1nc2c(N3C[C@@H](C)N[C@@H](C)C3)cccc2n1S(=O)(=O)c1cccc(F)c1 | serotonin 5-HT6 receptor subtype (Homo sapiens) | 7.89
CCC1CN(c2cccc3c2ncn3S(=O)(=O)c2ccccc2)CCN1 (centres unmarked) | serotonin 5-HT6 receptor subtype (Homo sapiens) | 9.32

* * *

studyTarget: serotonin 5-HT6 receptor subtype (Homo sapiens, UniProt P50406)
Construct: host or cells: CHO-Dukx-A2 cells, clone 50-7
Sequence (P50406 whole entry): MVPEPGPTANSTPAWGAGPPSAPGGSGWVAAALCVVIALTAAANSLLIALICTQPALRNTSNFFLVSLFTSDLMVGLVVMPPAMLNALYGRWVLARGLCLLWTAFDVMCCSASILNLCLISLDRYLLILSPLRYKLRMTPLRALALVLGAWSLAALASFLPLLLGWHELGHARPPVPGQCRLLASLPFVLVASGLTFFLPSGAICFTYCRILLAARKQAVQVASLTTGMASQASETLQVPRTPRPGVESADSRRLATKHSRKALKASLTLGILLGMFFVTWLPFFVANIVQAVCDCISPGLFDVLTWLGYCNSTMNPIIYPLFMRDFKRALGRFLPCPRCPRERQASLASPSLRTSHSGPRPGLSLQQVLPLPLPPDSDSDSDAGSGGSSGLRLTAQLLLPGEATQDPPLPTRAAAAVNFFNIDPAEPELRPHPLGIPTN
protocol: 5-HT6 binding affinity ([3H]-LSD SPA binding)
conditionNotes: read-out: 5-HT6 binding Ki
pKi: −log10 of the molar value.

compound | pKi
O=S(=O)(c1cccc2c(Cl)cccc12)n1cnc2c(N3CCNCC3)cccc21 [Example 50] | 8.87
Cc1c(F)cccc1S(=O)(=O)n1cnc2c(N3CCNCC3)cccc21 [Example 87] | 9.40
Cc1nc2c(N3CCNCC3)cccc2n1S(=O)(=O)c1cccc(Cl)c1 [Example 16] | 9.00
Cc1nc2c(N3CCNC(C)C3)cccc2n1S(=O)(=O)c1ccccc1 (stereo in doubt) [Example 114] | 8.50
COc1cc(C)c(Cl)cc1S(=O)(=O)n1cnc2c(N3CCNCC3)cccc21 [Example 90] | 7.89
Cc1c(Cl)cccc1S(=O)(=O)n1c(C)nc2c(N3C[C@@H](C)N[C@@H](C)C3)cccc21 [Example 100] | 8.64
COc1cccc(S(=O)(=O)n2cnc3c(N4CCNCC4)cccc32)c1 [Example 34] | 8.92
O=S(=O)(c1cccc(F)c1F)n1cnc2c(N3CCNCC3)cccc21 [Example 83] | 9.40
